Measured pKi of individual entries
biological target: integrins haα4 and β1 (VLA-4) expressed on CHO cells (Homo sapiens, UniProt P05556+P13612); test: In vitro Evaluation Test (1): binding of Eu3+-hVCAM-1 D1D7-IgG to CHO cells expressing integrins α4 and β1; details: inhibition of Eu3+-hVCAM-1 D1D7-IgG binding to CHO cells expressing α4β1; Ki calculated from IC50
Sequence (P13612 34-1032): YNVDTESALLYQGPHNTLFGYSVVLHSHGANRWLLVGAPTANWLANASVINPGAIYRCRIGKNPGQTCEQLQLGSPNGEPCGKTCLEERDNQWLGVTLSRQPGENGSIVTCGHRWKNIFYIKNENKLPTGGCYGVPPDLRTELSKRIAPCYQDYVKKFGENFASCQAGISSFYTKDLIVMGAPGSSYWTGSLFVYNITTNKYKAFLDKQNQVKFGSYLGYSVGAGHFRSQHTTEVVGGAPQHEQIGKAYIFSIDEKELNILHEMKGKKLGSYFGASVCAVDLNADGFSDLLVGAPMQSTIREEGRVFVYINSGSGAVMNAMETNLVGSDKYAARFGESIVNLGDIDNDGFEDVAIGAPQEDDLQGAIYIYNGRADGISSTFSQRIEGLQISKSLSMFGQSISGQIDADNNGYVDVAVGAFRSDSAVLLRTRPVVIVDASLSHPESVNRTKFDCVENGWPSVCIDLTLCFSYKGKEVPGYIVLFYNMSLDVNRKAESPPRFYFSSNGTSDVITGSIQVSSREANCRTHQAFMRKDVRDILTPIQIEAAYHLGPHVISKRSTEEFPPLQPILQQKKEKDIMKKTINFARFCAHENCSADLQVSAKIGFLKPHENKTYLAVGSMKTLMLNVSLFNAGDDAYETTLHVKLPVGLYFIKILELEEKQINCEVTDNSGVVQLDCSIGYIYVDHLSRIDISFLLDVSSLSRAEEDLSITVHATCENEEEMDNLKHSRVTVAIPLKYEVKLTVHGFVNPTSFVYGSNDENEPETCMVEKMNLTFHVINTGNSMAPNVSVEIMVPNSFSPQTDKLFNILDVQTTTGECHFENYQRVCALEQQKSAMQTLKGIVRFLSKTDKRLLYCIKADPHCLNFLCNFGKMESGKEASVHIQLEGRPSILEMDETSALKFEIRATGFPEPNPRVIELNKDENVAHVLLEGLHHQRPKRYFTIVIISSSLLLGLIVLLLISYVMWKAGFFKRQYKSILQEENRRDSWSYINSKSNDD
Sequence (P05556 21-798): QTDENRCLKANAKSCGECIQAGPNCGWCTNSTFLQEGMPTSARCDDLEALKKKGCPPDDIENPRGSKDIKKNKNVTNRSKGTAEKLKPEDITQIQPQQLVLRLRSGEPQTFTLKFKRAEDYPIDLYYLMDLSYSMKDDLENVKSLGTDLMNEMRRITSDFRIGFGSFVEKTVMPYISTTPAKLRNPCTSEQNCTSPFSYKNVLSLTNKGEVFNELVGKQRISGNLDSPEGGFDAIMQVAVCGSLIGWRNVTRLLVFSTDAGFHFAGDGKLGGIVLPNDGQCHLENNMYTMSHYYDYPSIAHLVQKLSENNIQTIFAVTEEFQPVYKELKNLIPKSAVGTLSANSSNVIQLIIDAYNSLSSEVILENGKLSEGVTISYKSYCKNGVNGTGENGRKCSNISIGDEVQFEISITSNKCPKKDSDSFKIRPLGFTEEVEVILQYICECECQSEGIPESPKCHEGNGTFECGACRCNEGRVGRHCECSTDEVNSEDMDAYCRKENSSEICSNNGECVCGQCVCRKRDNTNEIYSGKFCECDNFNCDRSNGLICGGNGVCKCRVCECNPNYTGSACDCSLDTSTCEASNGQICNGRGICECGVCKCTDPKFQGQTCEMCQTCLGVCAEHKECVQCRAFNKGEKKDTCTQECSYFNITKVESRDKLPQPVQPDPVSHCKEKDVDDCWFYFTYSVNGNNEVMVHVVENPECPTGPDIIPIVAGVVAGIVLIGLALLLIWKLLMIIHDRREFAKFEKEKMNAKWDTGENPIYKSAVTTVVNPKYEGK
pKi: −log10 of the molar value.
MEASUREMENT KIND: pKi

> print(dat)
                                    compound  readout.number
 1  Cn1cc(-c2nc3ccc(CC(=O)N4C[C@@H](F)C[C@H]4CO[C@H]4CC[C@H](C(=O)O)CC4)cc3o2)c2ccc(F)cc21 [Example 99]            7.77
 2  Cn1cc(C(=O)Nc2cc(F)c(CC(=O)N3CCC[C@H]3CO[C@H]3CC[C@H](C(=O)O)CC3)cc2Cl)c2ccccc21 [Example 130]            8.06
 3  O=C(Cc1ccc(Nc2nc3ccccc3o2)c(Cl)c1)N1C[C@@H](F)C[C@H]1CO[C@H]1CC[C@H](C(=O)O)CC1 [Example 49]            8.36
 4  Cc1ccccc1Nc1nc2ccc(CC(=O)N3C[C@@H](F)C[C@H]3CNc3ccc(C(=O)O)cc3)cc2o1 [Example 33]            7.51
 5  C[C@H]1CC[C@@H](CO[C@H]2CC[C@H](C(=O)O)CC2)N1C(=O)Cc1cc(Cl)c(NC(=O)c2cn(C)c3ccccc23)cc1F [Example 136]            8.27
 6  COc1cc(CC(=O)N2C[C@@H](F)C[C@H]2CO[C@H]2CC[C@H](C(=O)O)CC2)ccc1NC(=O)c1cc2ccccc2[nH]1 [Example 78]            7.85
 7  O=C(Nc1ccc(CC(=O)N2C[C@@H](F)C[C@H]2CO[C@H]2CC[C@H](C(=O)O)CC2)cc1Br)c1nccc2ccccc12 [Example 79]            8.35
 8  COC[C@H]1CC[C@@H](CO[C@H]2CC[C@H](C(=O)O)CC2)N1C(=O)Cc1cc(Cl)c(NC(=O)c2nn(C)c3ccccc23)cc1F [Example 166]            8.10
 9  Cn1cc(-c2nc3ccc(CC(=O)N4C[C@@H](F)C[C@H]4CO[C@H]4CC[C@H](C(=O)O)CC4)cc3o2)c2cc(F)ccc21 [Example 100]            8.26
10  Cn1cc(C(=O)Nc2cc(F)c(CC(=O)N3C[C@@H](F)C[C@H]3CO[C@H]3CC[C@H](C(=O)O)CC3)cc2Cl)c2cc(F)ccc21 [Example 74]            8.11
11  C[C@@H](CO[C@H]1CC[C@H](C(=O)O)CC1)N(C)C(=O)Cc1cc(Cl)c(NC(=O)c2cn(C)c3ccccc23)cc1F [Example 144]            7.32
12  Cc1ccc(F)cc1Nc1nc2ccc(CC(=O)N3C[C@@H](F)C[C@H]3CO[C@H]3CC[C@H](C(=O)O)CC3)c(F)c2o1 [Example 44]            8.70
13  COc1cc(CC(=O)N2C[C@@H](F)C[C@H]2COc2ccc(C(=O)O)cc2)cc2oc(Nc3ccccc3C)nc12 [Example 3]            7.40

Source of measurements: patent US7157487B2
